# assayed target: PDE4B (Homo sapiens, UniProt Q07343)
# Sequence (Q07343 whole entry, species assumed): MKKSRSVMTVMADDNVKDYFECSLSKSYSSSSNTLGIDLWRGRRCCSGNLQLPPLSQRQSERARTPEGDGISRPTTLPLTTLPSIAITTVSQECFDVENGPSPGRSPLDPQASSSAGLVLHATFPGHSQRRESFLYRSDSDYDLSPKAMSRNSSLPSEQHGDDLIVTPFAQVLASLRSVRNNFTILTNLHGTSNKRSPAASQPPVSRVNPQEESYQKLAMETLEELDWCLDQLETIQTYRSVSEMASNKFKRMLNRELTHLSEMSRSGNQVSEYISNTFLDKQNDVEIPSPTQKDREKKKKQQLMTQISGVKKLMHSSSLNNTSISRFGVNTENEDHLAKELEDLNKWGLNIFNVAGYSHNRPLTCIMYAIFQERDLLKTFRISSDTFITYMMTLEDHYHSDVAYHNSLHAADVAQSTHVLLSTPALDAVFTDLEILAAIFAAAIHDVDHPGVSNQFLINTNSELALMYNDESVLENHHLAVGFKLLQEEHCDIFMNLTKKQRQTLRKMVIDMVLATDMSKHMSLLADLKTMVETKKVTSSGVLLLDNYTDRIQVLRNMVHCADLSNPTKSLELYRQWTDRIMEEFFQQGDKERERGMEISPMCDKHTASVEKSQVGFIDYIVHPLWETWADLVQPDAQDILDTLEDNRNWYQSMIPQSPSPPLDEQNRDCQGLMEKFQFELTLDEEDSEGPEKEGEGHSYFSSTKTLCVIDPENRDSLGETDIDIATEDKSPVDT
# assay overview: Scintillation Proximity Assay (SPA) of PDE4B enzyme activity ([H3]-cAMP cleavage)
# Assay type: biochemical
# condition summary: test substance 1 μM; one-hour incubation of [H3]-cAMP with PDE4B enzyme at 30° C.
The entries below are paired with their reported inhibition at 1 µM.

compound	inhibition at 1 µM
Cc1noc(C2CCN(c3nc4c(c(N[C@H]5CCC(=O)N(C)C5)n3)[S+]([O-])CC4)CC2)n1 (stereo partly shown) [Example 53]	96%
CCc1[nH]c2ccc(F)cc2c1C1CCN(c2nc3c(c(NC4(CO)CC4)n2)[S+]([O-])CC3)CC1 (stereo not shown) [Example 37]	92%
[O-][S+]1CCc2nc(N3CCC(c4ccc(Cl)cc4)CC3)nc(NC3CCOCC3)c21 (stereo not shown) [Example 6]	94%
CC(C)[C@H](CO)Nc1nc(N2CCC(c3c[nH]c4ccccc34)CC2)nc2c1[S+]([O-])CC2 (stereo partly shown) [Example 12]	94%
CC(C)[C@H](CO)Nc1nc(N2CCC(c3nc4cc(Cl)ccc4s3)CC2)nc2c1[S+]([O-])CC2 (stereo partly shown) [Example 149]	94%
[O-][S+]1CCc2nc(N3CCC(c4ccccc4F)CC3)nc(NC3(CO)CC3)c21 (stereo not shown) [Example 87]	92%
[O-][S+]1CCc2nc(N3CCC(c4nnc(-c5ccc(F)cc5)o4)CC3)nc(NC3(CO)CC3)c21 (stereo not shown) [Example 112]	95%

====

inhibition at 1 µM reference
# assayed target: PDE4B (Homo sapiens, UniProt Q07343)
# assay overview: Scintillation Proximity Assay (SPA) of PDE4B enzyme activity ([H3]-cAMP cleavage)
# Type: biochemical
# condition summary: test substance 1 μM; one-hour incubation with [H3]-cAMP at 30° C.

compound	u	inhibition at 1 µM
CN1C[C@@H](Nc2nc(N3CCC(CNS(C)(=O)=O)(c4ccccc4)CC3)nc3c2[S+]([O-])CC3)CCC1=O (stereo partly shown)	%	92
CS(=O)(=O)NCC1(c2ccccc2)CCN(c2nc3c(c(NC4(CO)CC4)n2)[S+]([O-])CC3)CC1 (stereo not shown)	%	89
O=C(c1ccc(F)cc1)C1(c2ccc(F)cc2)CCN(c2nc3c(c(NC4(CO)CC4)n2)[S+]([O-])CC3)CC1 (stereo not shown)	%	89
Cc1cn(C)nc1CN(C)C(=O)c1ccc(OC2CCN(c3nc4c(c(NC5CCOCC5)n3)[S+]([O-])CC4)CC2)cc1 (stereo not shown)	%	94
N#Cc1ccc(OC2CCN(c3nc4c(c(NC5CCOCC5)n3)[S+]([O-])CC4)CC2)cc1 (stereo not shown)	%	93
[O-][S+]1CCc2nc(N3CCC(c4nc5cc(F)ccc5[nH]4)CC3)nc(NC3CCOCC3)c21 (stereo not shown)	%	95
[O-][S+]1CCc2nc(N3CCC(OCc4ccccc4)(c4ccc(Cl)cc4)CC3)nc(NC3(CO)CC3)c21 (stereo not shown)	%	92

====

# assayed target: PDE4B (Homo sapiens)
# assay overview: Scintillation Proximity Assay (SPA) of PDE4B enzyme activity ([H3]-cAMP cleavage)
# Type: biochemical
# condition summary: test substance 1 μM; one-hour incubation of [H3]-cAMP with PDE4B enzyme at 30° C.
inhibition at 1 µM: recorded values
experimental readout: inhibition at 1 µM (%)

molecule	observed value
[O-][S+]1CCc2nc(N3CCC(c4ccc5ccccc5c4)CC3)nc(Nc3cccc(F)c3)c21 (stereo not shown)	94
CN1C[C@@H](Nc2nc(N3CCC4(CC3)NC(=O)Nc3ccccc34)nc3c2[S+]([O-])CC3)CCC1=O (stereo partly shown)	83
[O-][S+]1CCc2nc(N3CCC(c4nnc5ccccn45)CC3)nc(Nc3cccc(F)c3)c21 (stereo not shown)	94
O=S1(=O)CCc2nc(N3CCC(c4ccc(Cl)cc4)CC3)nc(NC3CCOCC3)c21	65
[O-][S+]1CCc2nc(N3CCC(c4cccc(O)c4)CC3)nc(NC3CCOCC3)c21 (stereo not shown)	95
[O-][S+]1CCc2nc(N3CCC(c4cccc(F)c4)CC3)nc(NC3(CO)CC3)c21 (stereo not shown)	95
Cc1noc(C2CCN(c3nc4c(c(NC5(CO)CC5)n3)[S+]([O-])CC4)CC2)n1 (stereo not shown)	92
CCc1[nH]c2ccc(F)cc2c1C1CCN(c2nc3c(c(N[C@@H](CO)C(C)C)n2)[S+]([O-])CC3)CC1 (stereo partly shown)	86
[O-][S+]1CCc2nc(N3CCC(c4ccc5ccccc5c4)CC3)nc(NC3CCOCC3)c21 (stereo not shown)	96
[O-][S+]1CCc2nc(N3CCC(O)(c4cc(F)cc(F)c4)CC3)nc(Nc3cccc(F)c3)c21 (stereo not shown)	96
N#Cc1cccc(C2CCN(c3nc4c(c(NC5CCOCC5)n3)[S+]([O-])CC4)CC2)c1 (stereo not shown)	94
CN1C[C@@H](Nc2nc(N3CCC(C#N)(c4ccccc4)CC3)nc3c2[S+]([O-])CC3)CCC1=O (stereo partly shown)	96
[O-][S+]1CCc2nc(N3CCC(c4nc5cc(Cl)ccc5s4)CC3)nc(NC3CCOCC3)c21 (stereo not shown)	96
N#CC1(c2ccccc2)CCN(c2nc3c(c(NC4CCOCC4)n2)[S+]([O-])CC3)CC1 (stereo not shown)	95
O=C1Nc2ccccc2C2(CCN(c3nc4c(c(NC5(CO)CC5)n3)[S+]([O-])CC4)CC2)O1 (stereo not shown)	92
COC(=O)c1ccc(C2CCN(c3nc4c(c(NC5(CO)CC5)n3)[S+]([O-])CC4)CC2)cc1 (stereo not shown)	95
CC(C)[C@H](CO)Nc1nc(N2CCC(c3cccc(C#N)c3)CC2)nc2c1[S+]([O-])CC2 (stereo partly shown)	92
[O-][S+]1CCc2nc(N3CCC4(CC3)OCc3ccccc34)nc(NC3(CO)CC3)c21 (stereo not shown)	75
[O-][S+]1CCc2nc(N3CCC4(CC3)OCc3ccccc34)nc(Nc3cccc(F)c3)c21 (stereo not shown)	83
[O-][S+]1CCc2nc(N3CCC(c4c[nH]cn4)CC3)nc(Nc3cccc(F)c3)c21 (stereo not shown)	95
CN1C(=O)Nc2ccccc2C12CCN(c1nc3c(c(NC4(CO)CC4)n1)[S+]([O-])CC3)CC2 (stereo not shown)	85
N#CC1(c2ccccc2)CCN(c2nc3c(c(Nc4cccc(F)c4)n2)[S+]([O-])CC3)CC1 (stereo not shown)	96
[O-][S+]1CCc2nc(N3CCC(c4cccc(Cl)c4)CC3)nc(Nc3cccc(F)c3)c21 (stereo not shown)	95
CN1C[C@@H](Nc2nc(N3CCC(c4ccc(Cl)cc4)CC3)nc3c2[S+]([O-])CC3)CCC1=O (stereo partly shown)	94
CN1C[C@@H](Nc2nc(N3CCC4(CC3)CN(S(C)(=O)=O)c3ccccc34)nc3c2[S+]([O-])CC3)CCC1=O (stereo partly shown)	95
[O-][S+]1CCc2nc(N3CCC(c4noc5ccc(F)cc45)CC3)nc(NC3CCOCC3)c21 (stereo not shown)	96
[O-][S+]1CCc2nc(N3CCC(c4nc(-c5ccncc5)no4)CC3)nc(NC3(CO)CC3)c21 (stereo not shown)	94
[O-][S+]1CCc2nc(N3CCC(c4noc5ccccc45)CC3)nc(NC3(CO)CC3)c21 (stereo not shown)	97
[O-][S+]1CCc2nc(N3CCC(c4c[nH]cn4)CC3)nc(NC3CCOCC3)c21 (stereo not shown)	86
Cc1noc(C2CCN(c3nc4c(c(NC5CCOCC5)n3)[S+]([O-])CC4)CC2)n1 (stereo not shown)	93
[O-][S+]1CCc2nc(N3CCC(c4cc5ccccc5o4)CC3)nc(Nc3cccc(F)c3)c21 (stereo not shown)	97
